# System: MDA-MB-231 breast
# protocol-details: NCI-60 one-dose screen, 48 h
# assay-context: 10 µM unless noted
About 83,000 compounds went through this panel and 20% of them were active in at least one assay; those are over-represented in the sample as a whole. The source made the active and inactive calls. The calls were made as follows: active = growth percent below 10; inactive = the rest.
Outcomes: YES (active), NO (inactive)

[[record]]
item_smiles = "Cc1ccccc1COc1ccc(-c2ccnn2-c2ccc(Cl)cc2)cc1"
subject_of_test = "MDA-MB-231 breast"
discrete_label = "NO"

[[record]]
item_smiles = "CCOC(=O)c1csc(NC(=O)COc2cccc(/C=C3\\CSc4ccccc4C3=O)c2)n1"
subject_of_test = "MDA-MB-231 breast"
discrete_label = "NO"

[[record]]
item_smiles = "CC[C@]1(O)C[C@@H]2CN(CCc3c([nH]c4ccccc34)[C@@](C(=O)OC)(c3cc4c(cc3OC)N(C)[C@H]3[C@@](O)(C(N)=O)[C@H](O)[C@]5(CC)[C@@H]6C[C@@H]6CN6CC[C@]43[C@@H]65)C2)C1"
subject_of_test = "MDA-MB-231 breast"
discrete_label = "YES"

[[record]]
item_smiles = "CC(C)C1=C[C@@]23CC[C@@H]4[C@](C)(CCC[C@@]4(C)C(=O)N4CCCNCC4)[C@H]2C[C@@H]1[C@H]1C(=O)CCC(=O)[C@H]13"
subject_of_test = "MDA-MB-231 breast"
discrete_label = "NO"

[[record]]
item_smiles = "COc1ccc(/C=C(\\C#N)C(=O)Nc2cccc(Nc3nc(SC)nc(-c4cccc([N+](=O)[O-])c4)c3C#N)c2)cc1OC"
subject_of_test = "MDA-MB-231 breast"
discrete_label = "NO"

[[record]]
item_smiles = "C=CC(=O)Nc1cccc(-c2nc(SC)nc(NCc3ccccc3)c2C#N)c1"
subject_of_test = "MDA-MB-231 breast"
discrete_label = "NO"

[[record]]
item_smiles = "COc1cc2c(cc1O)CC[C@@H]1[C@@H]2CC[C@]2(C)[C@@H](NCCN(C)C)CC[C@@H]12"
subject_of_test = "MDA-MB-231 breast"
discrete_label = "YES"

[[record]]
item_smiles = "CCOC(=O)c1c(C(=O)OCC)c2cc(-c3ccn4c(C(=O)c5ccccc5)c(C(=O)OCC)c(C(=O)OCC)c4c3)ccn2c1C(=O)c1ccccc1"
subject_of_test = "MDA-MB-231 breast"
discrete_label = "NO"

